Experiment: In vivo microdialysis pharmacokinetics of LVFX without transporter inhibitors
Design: species or system rat
Conditions: rat, iv; blood; Group 1: vehicle solution of Tariquidar/Ko143 + LVFX 50 mg/kg; n=3
assayReadout: Tmax (min)

>>> recordedresult("C[C@H]1COc2c(N3CCN(C)CC3)c(F)cc3c(=O)c(C(=O)O)cn1c23")
15

====

Test system: Multidrug resistance-associated proteins (MRPs)
Assay: In vivo microdialysis pharmacokinetics of LVFX with MRPs inhibitor MK571
Set-up: species or system rat
Settings: rat, CSF (lateral ventricle microdialysate, unbound), intravenous, with MK571 20 mg/kg i.p.; CSF; MK571 group, MK571 20 mg/kg i.p. + LVFX 50 mg/kg; N=5
assayReadout: Tmax (min)

>>> recordedresult("C[C@H]1COc2c(N3CCN(C)CC3)c(F)cc3c(=O)c(C(=O)O)cn1c23")
15
